Test system: NRF2
Experiment: qPCR analysis of NRF2-regulated genes
Format: cell-based, human
Details: Homo sapiens, rounded fold change; WI-38 cells, 10 μM, 24 hrs (RP11 for Gr-1D, RP29 for Gr-4D); read-out: Summary of effects on NRF2-regulated genes: HMOX1
Documented fold induction at 10 µM across a set of molecules
Quantity: fold induction at 10 µM

>>> print(df.to_string())
                                    molecule  reported
 0  O=C(/C=C/c1cn(-c2ccccc2)nc1-c1cccnc1)c1ccccc1 [Gr-6B]      1.88
 1  O=C(c1ccc([N+](=O)[O-])o1)N1CCc2ccccc21 [O13]      5.52
 2  COc1ccc(/C=C2\SC(=N)N(c3nccs3)C2=O)cc1 [O21]      3.02
 3  CCc1ccc(Oc2nc3ccccn3c(=O)c2/C=C(\C#N)C(=O)NC2CCCCC2)cc1 [Gr-5A]      2.06
 4  O=C(Nc1ccc(Cl)c(Cl)c1)c1ccc([N+](=O)[O-])o1 [Gr-1G]       0.5
 5  CNC(=O)/C(C#N)=C/c1c(Oc2ccc(C(C)(C)C)cc2)nc2ccccn2c1=O [Gr-5D]      2.49
 6  CCc1ccc(Oc2nc3ccccn3c(=O)c2/C=C(\C#N)C(=O)NCc2ccco2)cc1 [Gr-5B]      1.73
 7  COc1ccc(C(=O)/C=C/c2ccccc2Br)c(OC)c1 [Gr-4B]      4.51
 8  O=C(NCc1cccnc1)/C(=C\c1ccc(Br)cc1)S(=O)(=O)c1ccccc1 [Gr-7B]      54.1
 9  O=C(NCc1cccnc1)/C(=C\c1cccc(Oc2ccccc2)c1)S(=O)(=O)c1ccccc1 [Gr-7A]      15.2
10  O=C(NCc1cccnc1)/C(=C/c1ccc(-c2ccc(Cl)cc2)o1)S(=O)(=O)c1ccccc1 [Gr-7C]      28.1
11  COc1ccc(C(=O)/C=C/c2cccc(Cl)c2)c(OC)c1 [Gr-4C]      89.5
12  O=[N+]([O-])c1ccccc1S(=O)(=O)Nc1cccc2cccnc12 [Gr-3A]      1.41
13  N=C1S/C(=C\c2cn(-c3ccccc3)nc2-c2cccs2)C(=O)N1c1nccs1 [Gr-6C]      2.09
14  Cc1cc(C)c(C(=O)/C=C/c2ccccc2F)c(O)n1 [O18]      23.8
15  O=C(/C(=C/c1ccc(Cl)cc1)c1nc2ccccc2[nH]1)c1ccccc1 [Gr-4D]      4.55
16  O=C(Nc1cccc(Cl)c1)c1ccc([N+](=O)[O-])o1 [Gr-1D]      4.68
17  CC1C(=O)C(C)C(c2cc(Cl)ccc2O)NC1c1cc(Cl)ccc1O (stereo not shown) [O6]      3.85
18  COc1ccc(C(=O)/C=C/c2ccc(F)cc2)c(OC)c1 [Gr-4A]      5.24
19  COc1cccc(/C=C2\CN(C)C/C(=C\c3cccc(OC)c3OC)C2=O)c1OC [O23]      12.9
20  CCCN1C/C(=C\c2ccc(F)cc2)C(=O)/C(=C/c2ccc(F)cc2)C1 [O15]      48.7
21  CCCC(=O)Nc1ccc(-c2cn3cccc(C)c3n2)cc1 [O12]      0.82

Where these numbers come from: patent US11413278B2
